target: GST-AP-2γ (UniProt Q92754 1-450); assay: EMSA; 10 mM HEPES pH 8.0, 60 mM KCl, 4 mM MgCl2, 0.1 mM EDTA, 100 μg/ml BSA, 0.25 mM DTT, 10% glycerol, 37°C 20 min; 5 pmol probe, 50 pmol protein in 15 μl; 6% native PAGE; conditions: protein: recombinant; tags: GST (N-terminal, pGEX-4T-2); chain copies: 2; label: 32P 5' end of forward strand; blunt
Sequence (Q92754 whole entry): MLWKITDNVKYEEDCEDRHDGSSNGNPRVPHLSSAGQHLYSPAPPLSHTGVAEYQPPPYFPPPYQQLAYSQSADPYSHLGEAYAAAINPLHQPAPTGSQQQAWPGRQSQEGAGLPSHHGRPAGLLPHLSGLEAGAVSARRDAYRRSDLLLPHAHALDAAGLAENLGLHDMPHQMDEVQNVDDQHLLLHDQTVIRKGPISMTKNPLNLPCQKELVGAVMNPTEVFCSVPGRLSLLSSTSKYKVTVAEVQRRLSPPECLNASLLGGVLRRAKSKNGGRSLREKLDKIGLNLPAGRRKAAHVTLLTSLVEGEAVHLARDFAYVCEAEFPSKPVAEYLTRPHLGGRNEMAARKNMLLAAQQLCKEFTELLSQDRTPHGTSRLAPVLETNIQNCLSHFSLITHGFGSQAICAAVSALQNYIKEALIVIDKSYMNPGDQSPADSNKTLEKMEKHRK
readout_kind: binding result

> print(dat)
                                     binder  meas.value
1  WtR1-15-286/IGSF11 (dsDNA) DNA 1: TTTGCTGCCTTTGTCCTGTAG DNA 2: CTACAGGACAAAGGCAGCAAA       binds
2  WtR4-28-854/CDH2 (dsDNA) DNA 1: ATGCGACCTGCAGGCATGCCA DNA 2: TGGCATGCCTGCAGGTCGCAT       binds
